test system: U-251; test: NCI tumour cell line growth inhibition, 48 h
In all, about 58,000 sequences went through this assay and about 4,100 (7.1%) were called active. Not all results are given here. Potency and affinity values are given separately.
Quick list: GI50 per entry.
Record the result as a number with its unit.

Worked set:
- substance: "[Bis(aminomethyl)dimethylsilane]dichloroplatinum (II), CHEMBL2146201"
  experimental.target: "U-251"
  GI50: "33.5 µM"
- substance: "mu-(1,7-nanodiamine-N,N')bis-(cis-aminedichloroplatimum (II)), CHEMBL2146215"
  experimental.target: "U-251"
  GI50: "10.3 µM"
- substance: "CISPLATIN, CHEMBL11359"
  experimental.target: "U-251"
  GI50: "1.92 µM"
- substance: "[Bis(aminomethyl)pentamethylenesilane]dichloropaltinum(II), CHEMBL2146202"
  experimental.target: "U-251"
  GI50: "2.93 µM"

## Input Record lookup: for U-251, what GI50 belongs to [Bis(aminomethyl)ethylmethylsilane]tetrachloroplatinum(IV), CHEMBL2146192 ?
## Output 6.07 µM

## Input Record lookup: for U-251, what GI50 belongs to cis-Bis[[(trimethylsilyl)methyl]amino]tetrachloroplatinum(IV), CHEMBL2146191 ?
## Output 14.9 µM

These entries and their values trace back to ChEMBL document CHEMBL1201862.
